- protocol-text: Hepatic microsomal stability, MLM
- Type: in vitro ADME
- conditions-used: In vitro mouse liver microsomal stability
// boundary case: perc_remaining equal to 2% maps to 0; strictly smaller maps to 1

compound="COc1ccc(C(NC(=O)c2ncnc3[nH]ccc23)C(C)c2nnn[nH]2)cc1 (mixture of isomers)" group=0
compound="COCCNC(=O)c1c[nH]c2ncnc(N[C@H](c3ccc4c(c3)S(=O)(=O)CCC4)C(C)C)c12 (racemic)" group=1
compound="Cc1nn(C)cc1-c1cc2c(N[C@H](c3ccc4c(c3)S(=O)(=O)CCC4)C(C)C)ncnc2[nH]1 (single isomer, unassigned)" group=1
compound="CC(C)[C@@H](Nc1ncnc2[nH]c(-c3cnn(CC(=O)N(C)C)c3)cc12)c1ccc2c(c1)S(=O)(=O)CCC2 (racemic) [ASAP-0008668]" group=0
compound=CC(C)[C@@H](Nc1ncnc2[nH]c(-c3cnn(C)c3)cc12)c1ccc2c(c1)S(=O)(=O)NCC2 group=0
